Tested on: P388 leukemia ip, CD2F1 mice, survival T/C
Test: NCI In Vivo Anticancer Drug Screen. Data for tumor model P388 Leukemia (intraperitoneal) in CD2F1 (CDF1) mice
Conditions: endpoint: median survival time; dose: 50.0 mg/kg/injection; schedule: Q01DX009 (ip); vehicle: other; higher = longer survival
Inconclusive results and toxic doses are left out. Peptide text beside a SMILES is read from it. * marks the point of attachment. Boc = CC(C)(C)OC(=O)*; NHNH2 = NN*
Consider the following molecules and their measured T/C readings.

[[record]]
molecule = "CCOC(=O)/C=C/c1nc(OCC)c(C)c(C(=O)OCC)n1"
tested_on = "P388 leukemia ip, CD2F1 mice, survival T/C"
meas_value = "98 % of control"

[[record]]
molecule = "CCNCc1c2c(O)c3c(O)c(C)c4c(c3c1O)C(=O)C(C)(O/C=C/C(OC)C(C)C(OC(C)=O)C(C)C(O)C(C)C(O)C(C)/C=C/C=C(/C)C(=O)N2)O4 (configuration not stated)"
tested_on = "P388 leukemia ip, CD2F1 mice, survival T/C"
meas_value = "89 % of control"

[[record]]
molecule = "Cc1ccc(S(=O)(=O)N/N=C/c2ccc(O)c(O)c2)cc1"
tested_on = "P388 leukemia ip, CD2F1 mice, survival T/C"
meas_value = "112 % of control"

[[record]]
molecule = "CC(=O)OCC1OC(OC(C)=O)C(NC(=O)CN(Cc2ccccc2)S(C)(=O)=O)C(OC(C)=O)C1OC(C)=O (configuration not stated)"
tested_on = "P388 leukemia ip, CD2F1 mice, survival T/C"
meas_value = "96 % of control"

[[record]]
molecule = "CP(=O)(N/N=C\\C(=O)O)c1ccccc1 (configuration not stated)"
tested_on = "P388 leukemia ip, CD2F1 mice, survival T/C"
meas_value = "100 % of control"


Short answer please: T/C, P388 leukemia ip, CD2F1 mice, survival T/C, entry CC(C)(C)OC(=O)NC(Cc1c[nH]c2ccccc12)C(=O)NC(CS)C(=O)NN (stereo not drawn) (Boc-Trp-Cys-NHNH2; configuration not given here)
88 % of control

Short answer please: T/C, P388 leukemia ip, CD2F1 mice, survival T/C, entry "COc1cc2ccc(C(C)=O)c(O)c2cc1OC"
90 % of control

====

Tested on: P388 leukemia ip, CD2F1 mice, survival T/C
Experiment: NCI In Vivo Anticancer Drug Screen. Data for tumor model P388 Leukemia (intraperitoneal) in CD2F1 (CDF1) mice
Conditions: endpoint: median survival time; dose: 100.0 mg/kg/injection; schedule: Q01DX009 (ip); vehicle: Klucel (hydroxypropylcellulose) (HPC); higher = longer survival
Procedure: The antitumor activity of compounds was measured in mice bearing transplantable tumors. Survival or tumor size were measured and the results are expressed as the measurement made in the treated group (T) divided by the measurement made in the vehicle treated control group (C). The tumor model used in this assay is P388 Leukemia (intraperitoneal) in CD2F1 (CDF1) mice
Toxic doses and inconclusive results are not listed.
Consider the following compounds and their measured T/C readings.

Use the examples below as a reference point.
[[record]]
compound = "Cc1ccc(C)c(NC(=O)Nc2ccc(C(=O)O)cc2)c1"
attribute_measured = "T/C"
meas_value = "105 % of control"

[[record]]
compound = "COC(=O)c1ccc(CNC(=O)c2ccccc2C(=O)NCC2(CBr)OCCO2)cc1"
attribute_measured = "T/C"
meas_value = "99 % of control"

[[record]]
compound = "O=C(O)c1ccc(NC(=O)C2C(=O)C(=O)N(c3ccc(C(=O)O)cc3)C2=O)cc1 (configuration not stated)"
attribute_measured = "T/C"
meas_value = "100 % of control"


# input compound: c1cc(C2CO2)ccc1Oc1ccc(C2CO2)cc1 (configuration not stated) ; wanted: its T/C
88 % of control

# input compound: "C/C(=N\N=c1/cc(Cl)n(C)c(=O)n1C)c1ccc(Cl)cc1" ; wanted: its T/C
99 % of control

# input compound: COC(=O)C(CCSC)NC(=O)C(Cc1c[nH]c2ccccc12)NC(=O)OC(C)(C)C (configuration not stated) ; wanted: its T/C
97 % of control

# input compound: "Cc1ccc(-n2ncc3c(=O)n(-c4cccc(C)c4)c(=O)[nH]c32)cc1" ; wanted: its T/C
97 % of control

# input compound: CC#CC#C/C=C1/C=CC2(CC=CO2)O1 (configuration not stated) ; wanted: its T/C
114 % of control

# input compound: "CC(=O)Nc1ccc2c(c1)/C(=C/c1ccc(N(C)C)cc1)c1ccccc1-2" ; wanted: its T/C
96 % of control

====

Consider the following molecules and their measured T/C readings.
System: P388 leukemia ip, CD2F1 mice, survival T/C
Experiment: NCI In Vivo Anticancer Drug Screen. Data for tumor model P388 Leukemia (intraperitoneal) in CD2F1 (CDF1) mice
Details: endpoint: median survival time; dose: 10.0 mg/kg/injection; schedule: Q01DX009 (ip); vehicle: saline with Tween-80; higher = longer survival
Inconclusive results and toxic doses are left out.

[[record]]
molecule = "O=C1C(Cl)=C(Cl)C(=O)c2ccccc21"
tested_on = "P388 leukemia ip, CD2F1 mice, survival T/C"
attribute_measured = "T/C"
meas_value = "109 % of control"

[[record]]
molecule = "CC(=O)C(=O)c1ccc(O)cc1"
tested_on = "P388 leukemia ip, CD2F1 mice, survival T/C"
attribute_measured = "T/C"
meas_value = "96 % of control"

[[record]]
molecule = "C=C(C)C(=O)OC1CC2OC2(C)CC(OC(=O)C(=C)C)C2C(=C)C(=O)OC2/C=C\\1C (centres undefined)"
tested_on = "P388 leukemia ip, CD2F1 mice, survival T/C"
attribute_measured = "T/C"
meas_value = "90 % of control"


We now examine a further molecule.
# input molecule: COc1cc2oc(=O)ccc2cc1[C@@H]1OC(=O)C2(C)O[C@@H]12 (some centres undefined) ; wanted: its T/C
110 % of control

====

Consider the following compounds and their measured T/C readings.
System: P388 leukemia ip, CD2F1 mice, survival T/C
Experiment: NCI In Vivo Anticancer Drug Screen. Data for tumor model P388 Leukemia (intraperitoneal) in CD2F1 (CDF1) mice
Details: endpoint: median survival time; dose: 100.0 mg/kg/injection; schedule: Q01DX005 (ip); vehicle: Klucel (hydroxypropylcellulose) (HPC); higher = longer survival
Toxic doses and inconclusive results are not listed.

Use the examples below as a reference point.
[[record]]
compound = "OCC(O)c1c(-c2ccc(Cl)cc2)c(-c2ccccc2)c2n1CCC2 (stereo unspecified)"
attribute_measured = "T/C"
meas_value = "100 % of control"

[[record]]
compound = "COc1cc2c(c(C(C)(C)C)c1)OC1(O)C2=CC(=O)C=C1C(C)(C)C (stereo unspecified)"
attribute_measured = "T/C"
meas_value = "107 % of control"

[[record]]
compound = "COC1OC(CO)C(O)C(O)C1N1C(=O)c2ccccc2C1=O (stereo unspecified)"
attribute_measured = "T/C"
meas_value = "98 % of control"

[[record]]
compound = "COC1(OC)/C(=C/Cl)CC2(C)C(=O)NC(=O)C21Cl (stereo unspecified)"
attribute_measured = "T/C"
meas_value = "105 % of control"

[[record]]
compound = "CN1N=Nc2ccccc2C1O (stereo unspecified)"
attribute_measured = "T/C"
meas_value = "116 % of control"


# input compound: "Nc1cc(Cl)cc2c1-c1ccc(Cl)cc1C2=O" ; wanted: its T/C
90 % of control

====

System: P388 leukemia ip, CD2F1 mice, survival T/C
Assay: NCI In Vivo Anticancer Drug Screen. Data for tumor model P388 Leukemia (intraperitoneal) in CD2F1 (CDF1) mice
Conditions: endpoint: median survival time; dose: 200.0 mg/kg/injection; schedule: Q04DX003 (ip); vehicle: Klucel (hydroxypropylcellulose) (HPC); higher = longer survival
Toxic doses and inconclusive results are not listed.
attribute-measured: T/C

Use the examples below as a reference point.
[[record]]
molecule = "COc1ccc2c(n1)c(=NCCCCCCN=c1c3ccc(Cl)cc3n(O)c3ccc(OC)nc13)c1ccc(Cl)cc1n2O"
meas_value = "100 % of control"

[[record]]
molecule = "CC(=O)OCC(=O)[C@@]1(O)CC[C@H]2[C@@H]3CCC4=CC(=O)[C@H](C)C[C@]4(C)[C@@]3(F)[C@@H](O)C[C@@]21C"
meas_value = "110 % of control"

[[record]]
molecule = "C=C(C)C1CC=C(C)/C(=N/NC(=O)c2ccccn2)C1 (stereo not drawn)"
meas_value = "94 % of control"


# input molecule: "O=c1[nH]c2c(c(O)c1-c1ccccc1)CCCN2" ; wanted: its T/C
100 % of control

# input molecule: CCC(C(=O)N(C)C)n1nc(Br)c(Br)c1C (stereo not drawn) ; wanted: its T/C
95 % of control

# input molecule: "CN(C)c1nc(-c2ccccc2)cc(=O)[nH]1" ; wanted: its T/C
94 % of control

# input molecule: "CCc1[nH]c2ccc(C)cc2c1C(=O)c1cccnc1" ; wanted: its T/C
98 % of control

# input molecule: "CCN(CC)C(=O)OC1Cc2ccccc2CCc2ccccc2C1" ; wanted: its T/C
101 % of control

# input molecule: "COc1cc(/C=C/C=C/c2ccccc2)oc(=O)c1" ; wanted: its T/C
90 % of control

# input molecule: "Cn1cnc2cc(N3CCOCC3)c([N+](=O)[O-])cc2c1=O" ; wanted: its T/C
112 % of control

# input molecule: "O=C1c2ccccc2C(=O)N1C(=NCc1ccccc1)c1ccccc1" ; wanted: its T/C
104 % of control

# input molecule: O=C(NNC(O)C(F)(F)F)c1ccccc1 (stereo not drawn) ; wanted: its T/C
103 % of control

# input molecule: C=CC12COC(=O)CC1CCC(=O)C2 (stereo not drawn) ; wanted: its T/C
100 % of control
